Exercise: for every item that follows, state its recorded loss of binding vs wild type.
- EXPERIMENTAL_SYSTEM: T1, hiR2-FL-S537E-T7 (human, UniProt Q6PJF5 1-856)
- T1 sequence: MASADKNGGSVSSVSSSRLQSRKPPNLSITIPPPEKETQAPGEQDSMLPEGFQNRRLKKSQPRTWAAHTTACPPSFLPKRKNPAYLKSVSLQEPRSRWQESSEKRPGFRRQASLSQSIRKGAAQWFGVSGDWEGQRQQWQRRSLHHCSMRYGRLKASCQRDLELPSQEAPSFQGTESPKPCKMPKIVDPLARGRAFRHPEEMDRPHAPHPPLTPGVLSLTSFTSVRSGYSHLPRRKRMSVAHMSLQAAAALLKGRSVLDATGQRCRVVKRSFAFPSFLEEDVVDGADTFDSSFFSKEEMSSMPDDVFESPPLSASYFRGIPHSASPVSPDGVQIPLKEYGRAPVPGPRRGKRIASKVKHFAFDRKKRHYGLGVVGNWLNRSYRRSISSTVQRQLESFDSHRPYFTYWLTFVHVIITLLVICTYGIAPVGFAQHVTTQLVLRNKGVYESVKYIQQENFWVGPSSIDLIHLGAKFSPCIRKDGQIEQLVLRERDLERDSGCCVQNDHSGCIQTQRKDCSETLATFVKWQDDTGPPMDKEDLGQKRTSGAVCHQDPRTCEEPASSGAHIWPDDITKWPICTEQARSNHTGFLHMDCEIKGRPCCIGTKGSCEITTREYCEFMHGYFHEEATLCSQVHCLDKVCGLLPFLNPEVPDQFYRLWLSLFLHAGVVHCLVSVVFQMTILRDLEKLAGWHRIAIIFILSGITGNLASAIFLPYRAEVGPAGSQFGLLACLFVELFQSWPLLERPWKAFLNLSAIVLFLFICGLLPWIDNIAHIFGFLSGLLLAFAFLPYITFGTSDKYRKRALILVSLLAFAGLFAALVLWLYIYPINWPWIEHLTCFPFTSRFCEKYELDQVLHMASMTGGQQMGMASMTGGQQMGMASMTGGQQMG
- ASSAY_NOTES: FACS, MEF-DKO cells, 3 µg/ml

[ask] May I ask what loss of binding vs wild type has been recorded for antibody 22 (antibody, V domains shown, mouse IgG, kappa light chain; also called clone #22; purified antibody 22) VH: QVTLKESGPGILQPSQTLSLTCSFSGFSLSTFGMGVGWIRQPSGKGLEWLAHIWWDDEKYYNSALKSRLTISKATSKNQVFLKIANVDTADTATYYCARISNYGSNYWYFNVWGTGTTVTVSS VL: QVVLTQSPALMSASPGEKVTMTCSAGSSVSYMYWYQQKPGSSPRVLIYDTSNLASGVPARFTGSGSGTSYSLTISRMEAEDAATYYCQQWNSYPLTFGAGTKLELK ?
[reply] ≥ 60%

[ask] Request: antibody 42 (antibody, V domains shown, mouse IgG, kappa light chain; also called clone #42; purified antibody 42) VH: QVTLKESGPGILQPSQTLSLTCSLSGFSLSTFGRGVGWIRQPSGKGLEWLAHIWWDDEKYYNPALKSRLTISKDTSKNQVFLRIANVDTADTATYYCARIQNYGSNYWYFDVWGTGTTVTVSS VL: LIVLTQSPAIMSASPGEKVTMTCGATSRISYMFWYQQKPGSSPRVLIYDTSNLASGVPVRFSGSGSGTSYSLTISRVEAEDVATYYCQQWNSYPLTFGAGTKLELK
[reply] ≥ 60%

[ask] Proceed to antibody 44 (antibody, V domains shown, mouse IgG, kappa light chain; also called clone #44; purified antibody 44) VH: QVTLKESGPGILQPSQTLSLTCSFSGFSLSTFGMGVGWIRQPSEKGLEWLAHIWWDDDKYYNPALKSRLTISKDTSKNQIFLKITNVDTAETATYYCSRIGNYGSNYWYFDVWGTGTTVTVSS VL: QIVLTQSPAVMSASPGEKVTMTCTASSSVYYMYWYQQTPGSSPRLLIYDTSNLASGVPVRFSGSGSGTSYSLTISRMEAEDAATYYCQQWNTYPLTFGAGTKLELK
[reply] ≥ 60%

[ask] Please do the same for antibody 34 (antibody, V domains shown, mouse IgG, kappa light chain; also called clone #34; purified antibody 34) VH: QVTLKESGPGILQPSQTLSLTCSFSGFSLSTFSLGVGWIRQSSGKGLEWLAHIWWDDEKYYNPALKSRLTISKDTSKNQVFLKIANVDAADTATYYCARAYYSKSYYALDYWGQGTSVTVSS VL: DIQMTQSPSSLSASLGERVSLTCRASQEISGYLSWLQQKPDGTIKRLIYAASTLDSGVPKRFSGSRSGSDYSLAISSLESEDFADYYCLQYANFPFTFGSGTKLEIK as well.
[reply] ≥ 95%

[ask] Next up: antibody 5 (antibody, V domains shown, mouse IgG, kappa light chain; also called clone #5; purified antibody 5) VH: QVTLKESGPGILQPSQTLSLTCSFSGFSLSTFGMGVGWIRQPSGKGLEWLAHIWWDDEKYYNSALKSRLTISKATSKNQAFLKIANVDTADTATYYCARISNYGSNYWYFNVWGTGTTVTVSS VL: QVVLTQSPALMSASPGEKVTMTCSAGSSVSCMYWYQQKPGSSPRVLIYDTSNLASGVPARFTGSGSGTSYSLTISRMEAEDAASYYCQQWNSYPLTFGAGTKLELK
[reply] ≥ 95%

[ask] Please do the same for antibody 43 (antibody, V domains shown, mouse IgG, kappa light chain; also called clone #43; purified antibody 43) VH: QVALKESGPGILQPSQTLSLTCSFSGFSLSTFGMGVGWIRQSSGKGLEWLANIWWDDDKYYNPALKSRLTISKDASKNQAFLKIANVDTADTATYYCARIGNYGSNYWYFDVWGTGTTVTVSS VL: QIVLTQSPAIMSASPGERVTMTCSANSRISYMYWYQQKPGSSPRLLIYDTSNLASGVPVRFSGSGSGTSYSLTISRMEAEDAATYNCQQWSSYPLTFGAGTKLELK as well.
[reply] ≥ 60%

Attribution: patent US20240287172A1
